- Experimental details: Evaluation of solubility of thiazolothiazole derivatives in organic solvents
- Format: physicochemical
- Cond: organic solvent or mixture, thermodynamic from solid; 10 mg (1.0 weight %) in 1 ml monochlorobenzene; 25° C., else heated to boiling temperature; naked eye; read-out: Solubility Monochlorobenzene
Recorded endpoint: solubility

Consider the following illustrative entries.
structure_notation=CCCCOc1ccc(-c2ccc(-c3nc4sc(-c5ccc(-c6ccc(OCCCC)cc6)s5)nc4s3)s2)cc1 recorded_endpoint=solubility observed="< 10000 µg/mL"
structure_notation=CC(C)(C)c1ccc(-c2ccc(-c3nc4sc(-c5ccc(-c6ccc(C(C)(C)C)cc6)s5)nc4s3)s2)cc1 recorded_endpoint=solubility observed="< 10000 µg/mL"

q: Recorded solubility of `CCCCCCCCc1ccc(-c2cc(C)c(-c3nc4sc(-c5sc(-c6ccc(CCCCCCCC)cc6)cc5C)nc4s3)s2)cc1` , please.
a: > 10000 µg/mL
